Target: GST-NbGlk1(82-244) (Nicotiana benthamiana)
Chain: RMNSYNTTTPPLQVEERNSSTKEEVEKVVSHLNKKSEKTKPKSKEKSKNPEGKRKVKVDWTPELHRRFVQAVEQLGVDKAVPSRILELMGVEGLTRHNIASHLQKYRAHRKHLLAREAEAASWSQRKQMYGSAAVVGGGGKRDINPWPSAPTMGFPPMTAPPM
Test: protein-binding microarray; NbGlk1 is a Golden2-like transcription factor of Nicotiana benthamiana; high values mean tight binding
Details: protein: recombinant; tags: GST (pTH6838); dsDNA, one strand shown
Whole data set: some 16,000 sequences, median “e-score” near -0.044, cut for the highest 2% near 0.38. Shown is part of a subset that was picked to be rich in the highest values.
binding signal listing for selected sequences.
measurement.type: binding signal

| macromolecule.sequence | target.of.assay | result |
| --- | --- | --- |
| AGGGTAAT | GST-NbGlk1(82-244) (Nicotiana benthamiana) | 0.262 E-score |
| CAATCCCA | GST-NbGlk1(82-244) (Nicotiana benthamiana) | 0.279 E-score |
| AAATCCCG | GST-NbGlk1(82-244) (Nicotiana benthamiana) | 0.435 E-score |
| AAATCACC | GST-NbGlk1(82-244) (Nicotiana benthamiana) | 0.333 E-score |
| AAATCCTC | GST-NbGlk1(82-244) (Nicotiana benthamiana) | 0.414 E-score |
| AGATATGG | GST-NbGlk1(82-244) (Nicotiana benthamiana) | 0.373 E-score |
| ACAAGAGA | GST-NbGlk1(82-244) (Nicotiana benthamiana) | 0.277 E-score |
| AGATATCG | GST-NbGlk1(82-244) (Nicotiana benthamiana) | 0.462 E-score |
| CAATCCTC | GST-NbGlk1(82-244) (Nicotiana benthamiana) | 0.269 E-score |
| AGATATGC | GST-NbGlk1(82-244) (Nicotiana benthamiana) | 0.415 E-score |
| ATATATCG | GST-NbGlk1(82-244) (Nicotiana benthamiana) | 0.276 E-score |
| ATCATAGA | GST-NbGlk1(82-244) (Nicotiana benthamiana) | 0.214 E-score |
| ATATATCA | GST-NbGlk1(82-244) (Nicotiana benthamiana) | 0.276 E-score |
| AGATATGA | GST-NbGlk1(82-244) (Nicotiana benthamiana) | 0.318 E-score |
| AAATCCCA | GST-NbGlk1(82-244) (Nicotiana benthamiana) | 0.4 E-score |
| ACGTATCG | GST-NbGlk1(82-244) (Nicotiana benthamiana) | 0.223 E-score |

Origin of the recorded values: paper PMC5836133
